# System: MS2 coat protein
# PROTOCOL NOTES: apparent KD of MS2 coat protein; designed switch direction (-1 OFF switch, 1 ON switch): 1; higher = weaker reporter binding
# TEST CONDITIONS: input ligand: microRNA oligo, concentration not stated

RESIDUE SEQUENCE	apparent KD of MS2 coat protein
GUUACAUGAGGAUCACCCAUGUAUGUGUGGGAGUAAGUGUCUUAGGAUAUCUAUUAUUAAAAUUAAGAGAAGGAAGAUUGUUGU [JMF's solution 18] (Eterna round: R96, puzzle: Same State NG 3)	98.1 nM
UUGAAGAAUUAAGGAUAUUGAAUACAUAUGUUUAACAUGAGGAUCACCCAUGUGGGUUGCGGUAUCGAGAAGGUAAAUUAAUAG [Mat - Same State NG 2 - JL mod - D9] (Eterna round: R96, puzzle: Same State NG 2)	98.4 nM
CUGAGCAGUCAAGGAUAUCACGUCGUUUAGACGUGAGAAGGUGACCAAUACAUGAGGAUCACCCAUGUAAUACAUGAAGCUCAG [SSNG1/12-A3] (Eterna round: R96, puzzle: Same State NG 1)	17.8 nM
UUGAGAUGUACAGGAUAUGGUGAGGAUCACCCACUAGAAGGGUGCACAUGUGAAUCGGACAUGAGGAUCACCCAUGUUGGGCGU (Eterna round: R96, puzzle: Same State NG 1)	224 nM
AUUGGGUAACGAGGAUAUCGUAUUUGUUUGUUUCGAGAAGGCGUUAUAGUUUCUUUCUAUUGUUACAUGAGGAUCACCCAUGUU [JR_SSNG1_Sub052] (Eterna round: R96, puzzle: Same State NG 1)	15 nM
